- System: H1N1 A1/Malaysia/302/1954
- condition-label: A1/Malaysia/302/1954, 48 h, 10 μM
Bridge positions count the residues as written; N and C are the ends. Square brackets hold non-standard residues; d marks the D form. Peptide text beside a SMILES is read from it.
quantity-name: % inhibition H1N1 (%)
The response must be a number in % with no trailing unit.

Examples from the recorded data:
CC[C@@H](C)[C@H]1NC(=O)[C@@H](Cc2ccccc2)NC(=O)[C@@H](CCC(N)=O)NC(=O)[C@@H](Cc2ccccc2)NC(=O)[C@@H](Cc2c[nH]c3ccccc23)NC(=O)[C@@H]([C@H](C)O)NC(=O)[C@H](NC(=O)[C@H](CCCCN)NC(=O)[C@H](CCCCN)NC(=O)[C@H](CCCNC(=N)N)NC(=O)[C@@H](N)CCCNC(=N)N)CSSC[C@H](C(=O)O)NC(=O)[C@@H](CC(N)=O)NC1=O [PSP IV A14, H-RRKKctwfqfinc-OH] (H-RRKK[dC][dT][dW][dF][dQ][dF][dI][dN][dC]-OH; disulfide 5-13): 66
CC[C@@H](C)[C@H]1NC(=O)[C@@H](Cc2ccccc2)NC(=O)[C@@H](Cc2c[nH]c3ccccc23)NC(=O)[C@@H](Cc2ccccc2)NC(=O)[C@@H](Cc2c[nH]c3ccccc23)NC(=O)[C@@H]([C@H](C)O)NC(=O)[C@H](NC(=O)[C@H](CCCCN)NC(=O)[C@H](CCCCN)NC(=O)[C@H](CCCNC(=N)N)NC(=O)[C@@H](N)CCCNC(=N)N)CSSC[C@H](C(=O)O)NC(=O)[C@@H](CC(N)=O)NC1=O [PSP IV A19, H-RRKKctwfwfinc-OH] (H-RRKK[dC][dT][dW][dF][dW][dF][dI][dN][dC]-OH; disulfide 5-13): 87
CC[C@@H](C)[C@H]1NC(=O)[C@@H](Cc2ccccc2)NC(=O)[C@@H](CS)NC(=O)[C@@H](Cc2ccccc2)NC(=O)[C@@H](Cc2c[nH]c3ccccc23)NC(=O)[C@@H]([C@H](C)O)NC(=O)[C@H](NC(=O)[C@H](CCCCN)NC(=O)[C@H](CCCCN)NC(=O)[C@H](CCCNC(=N)N)NC(=O)[C@@H](N)CCCNC(=N)N)CSSC[C@H](C(=O)O)NC(=O)[C@@H](CC(N)=O)NC1=O [PSP IV A2, H-RRKKctwfcfinc-OH] (H-RRKK[dC][dT][dW][dF][dC][dF][dI][dN][dC]-OH; disulfide 5-13): 60

Summary for this molecule, CC[C@@H](C)[C@H]1NC(=O)[C@@H](Cc2ccccc2)NC(=O)[C@@H](Cc2ccc(O)cc2)NC(=O)[C@@H](Cc2ccccc2)NC(=O)[C@@H](Cc2c[nH]c3ccccc23)NC(=O)[C@@H]([C@H](C)O)NC(=O)[C@H](NC(=O)[C@H](CCCCN)NC(=O)[C@H](CCCCN)NC(=O)[C@H](CCCNC(=N)N)NC(=O)[C@@H](N)CCCNC(=N)N)CSSC[C@H](C(=O)O)NC(=O)[C@@H](CC(N)=O)NC1=O [PSP IV A20, H-RRKKctwfyfinc-OH] (H-RRKK[dC][dT][dW][dF][dY][dF][dI][dN][dC]-OH; disulfide 5-13) : % inhibition H1N1 is 79

* * *

- System: H1N1 A/PR/8/1934
- condition-label: A/PR/8/1934, 48 h
Bridge positions count the residues as written; N and C are the ends. Square brackets hold non-standard residues; d marks the D form. Peptide text beside a SMILES is read from it.
quantity-name: IC50 (nM)
The response must be a number in nM with no trailing unit.

CC[C@@H](C)[C@H]1NC(=O)[C@@H](Cc2ccccc2)NC(=O)[C@@H]([C@H](C)O)NC(=O)[C@@H](Cc2ccccc2)NC(=O)[C@@H](Cc2c[nH]c3ccccc23)NC(=O)[C@@H](Cc2c[nH]c3ccccc23)NC(=O)[C@H](NC(=O)[C@H](CCCCN)NC(=O)[C@H](CCCCN)NC(=O)[C@H](CCCNC(=N)N)NC(=O)[C@@H](N)CCCNC(=N)N)CSSC[C@H](C(=O)O)NC(=O)[C@@H](C)NC1=O [PSP VI A1, H-RRKKcwwftfiac-OH] (H-RRKK[dC][dW][dW][dF][dT][dF][dI][dA][dC]-OH; disulfide 5-13): 4

Next compound, please.
Summary for this compound, CC[C@@H](C)[C@H]1NC(=O)[C@@H](Cc2ccccc2)NC(=O)[C@@H]([C@H](C)O)NC(=O)[C@@H](Cc2ccccc2)NC(=O)[C@@H](Cc2c[nH]c3ccccc23)NC(=O)[C@@H](Cc2c[nH]c3ccccc23)NC(=O)[C@H](NC(=O)[C@H](CCCCN)NC(=O)[C@H](CCCCN)NC(=O)[C@H](CCCNC(=N)N)NC(=O)[C@@H](N)CCCNC(=N)N)CSSC[C@H](C(=O)O)NC(=O)[C@@H](CC(N)=O)NC1=O [PSP V A19, H-RRKKcwwftfinc-OH] (H-RRKK[dC][dW][dW][dF][dT][dF][dI][dN][dC]-OH; disulfide 5-13) : IC50 is 20

Recorded values, source patent US10538554B2.
